The values you see were collected from PubChem BioAssay (NCI).

We begin with a simple list: items and their reported TGI.
tested on: EKVX NSCLC; assay: NCI tumour cell line growth inhibition, 48 h

Past entries and their recorded results:
MOLECULE | TGI
C/C=C1\CC(C(=O)OCC)CCCCCCC1=O (stereo not drawn) | > 100 µM
COc1cccc(N/C(C)=C2/CCOC2=O)c1 | > 10 µM

// assay EKVX NSCLC, entry C[C@H]1CCC/C=C/C2CC(OC(=O)CN(C)C)CC2C(OC(=O)CN(C)C)/C=C/C(=O)O1 (stereo partly drawn) , TGI value = > 87.8 µM

---

test system: COLO 205 colon; test: NCI tumour cell line growth inhibition, 48 h
We begin with a simple list: items and their reported TGI.

According to the records, this molecule CC(=O)N[C@H](C)[C@@H](O)[C@@H](C)[C@@H]1OC(=O)/C=C/C=C(C)\C=C\[C@]2(C)C[C@@H](NS(C)(=O)=O)C=C[C@@H]2/C=C(C)/C=C/[C@H]1C displays TGI of > 43.5 µM

According to the records, this molecule COc1cccc(/C=N/[N-]C(=O)c2ccncc2)c1[O-].[Mn+2].[OH3+] displays TGI of > 100 µM

According to the records, this molecule CCOC(=O)Oc1cc2ccsc2c2c1c1ccccc1n2C(=O)OCC displays TGI of > 100 µM

According to the records, this molecule CCN(CC)CC1CCCCN1CC(=O)N1c2cc(Cl)ccc2NC(=O)CC1C (stereo not given) displays TGI of > 100 µM

According to the records, this molecule C/C=C1\CC(C(=O)OCC)CCCCCCC1=O (stereo not given) displays TGI of > 100 µM
